assayed-system: human enzyme NAMPT (full length) (Homo sapiens)
Construct: human enzyme NAMPT (full length)
run-description: NMN fluorescence biochemical assay (stimulation of NMN synthesis by NAMPT)
run-conditions: NMN synthesis by purified human NAMPT (100 nM); concentration giving half-maximal activation; read-out: Enzymatic EC50
Protocol: Certain compounds described herein were assayed for their ability to stimulate the synthesis of nicotinamide mononucleotide (NMN) by human enzyme NAMPT (full length). […] Fluorescence (Ex/Em=382/445 nm) was measured using an Envision plate reader. The potency measurements for the test compounds were quantified and represented as EC50 (concentration of a compound that gives half-maximal activation) and Emax (fold change of a compound's maximal activation compared to DMSO).
pEC50: −log10 of the molar value.
parameter: pEC50

CC1c2ccccc2C(=O)N1Cc1cc(F)c2[nH]nnc2c1 (stereo not drawn) [Compound 290] | ≤ 5.30
COc1ccc2c(c1)CN(Cc1ccc3[nH]c(=O)oc3c1)C2=O [Compound 49] | ≤ 5.30
CC1c2ccccc2C(=O)N1Cc1ccc2[nH]nnc2c1 (stereo not drawn) [Compound 44] | ≤ 5.30
O=C1c2ccccc2CCN1Cc1ccc2[nH]c(=O)oc2c1 [Compound 8] | ≤ 5.30
Cc1ccc2c(c1)C(=O)N(Cc1ccc(O)cc1)C2=O [Compound 14] | 5.30 to 6.30
O=c1[nH]c2ccc(Cn3ccc4ccccc4c3=O)cc2o1 [Compound 4] | ≤ 5.30

Need pEC50 for each of these molecules.
1. Cn1c2ccccc2c(=O)n1Cc1ccc2[nH]c(=O)oc2c1 [Compound 46]
2. CCc1ccc2c(c1)C(=O)N(Cc1ccc(O)cc1)C2=O [Compound 41]
3. Cn1ncc(Cl)c1CC1c2ccccc2C(=O)N1CC1CC2(CNC(=O)O2)C1 (stereo not drawn) [Compound 307]

*A*
≤ 5.30
5.30 to 6.30
5.30 to 6.30

---

assayed-system: human enzyme NAMPT (full length) (Homo sapiens, UniProt P43490)
Construct: human enzyme NAMPT (full length)
Sequence (P43490 whole entry): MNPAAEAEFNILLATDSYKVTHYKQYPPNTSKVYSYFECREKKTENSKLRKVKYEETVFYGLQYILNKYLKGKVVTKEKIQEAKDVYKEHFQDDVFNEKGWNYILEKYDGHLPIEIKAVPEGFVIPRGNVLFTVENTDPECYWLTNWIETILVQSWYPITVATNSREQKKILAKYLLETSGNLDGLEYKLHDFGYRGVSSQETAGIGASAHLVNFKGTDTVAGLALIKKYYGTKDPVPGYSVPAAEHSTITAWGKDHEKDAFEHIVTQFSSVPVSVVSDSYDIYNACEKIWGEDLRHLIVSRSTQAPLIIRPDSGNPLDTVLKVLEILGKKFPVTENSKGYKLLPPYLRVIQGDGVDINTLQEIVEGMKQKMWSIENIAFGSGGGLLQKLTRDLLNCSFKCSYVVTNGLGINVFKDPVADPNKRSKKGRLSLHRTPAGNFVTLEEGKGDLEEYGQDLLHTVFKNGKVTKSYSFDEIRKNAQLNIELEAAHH
run-description: NMN fluorescence biochemical assay (stimulation of NMN synthesis by NAMPT)
run-conditions: fold change of maximal activation compared to DMSO
parameter: Enzymatic Emax

Guide cases for Enzymatic Emax, answers given:
O=C1c2ccccc2C(C(F)(F)c2ccccc2)N1Cc1ccc2[nH]c(=O)oc2c1 (stereo not drawn) | C (2≥C)
Cc1ccc(C#N)c(CC2c3ccccc3C(=O)N2Cc2ccc3[nH]c(=O)oc3c2)c1 (stereo not drawn) | B (3≥B>2)
Cn1ncc(Cl)c1CC1c2ccccc2C(=O)N1CC1CC2(CNC(=O)N2)C1 (stereo not drawn) | C (2≥C)
O=C1c2ccc(Br)cc2CN1Cc1ccc2[nH]c(=O)oc2c1 | C (2≥C)
O=C1NCC2(CC(CN3C(=O)c4ccccc4C3Cc3ncccc3Br)C2)O1 (stereo not drawn) | A (A>3)

Need Enzymatic Emax for each of these compounds.
1. O=C1c2ccc(Br)cc2C(=O)N1Cc1ccc(O)cc1
2. Cn1ncc(Cl)c1CC1c2ccccc2C(C)(C)N1Cc1ccc2[nH]c(=O)oc2c1 (stereo not drawn)
3. Cn1ncc(Cl)c1CC1(C)c2ccccc2C(=O)N1CC1CC2(CNC(=O)O2)C1 (stereo not drawn)
4. O=C1c2ccccc2C(Cc2ncsc2Cl)N1Cc1ccc2[nH]nnc2c1 (stereo not drawn)
5. CC1c2cc(CN3CCOCC3)ccc2C(=O)N1Cc1ccc2[nH]c(=O)oc2c1 (stereo not drawn)

*A*
["A (A>3)", "A (A>3)", "B (3≥B>2)", "B (3≥B>2)", "A (A>3)"]

Need Enzymatic Emax for each of these compounds.
1. Cn1cnc(C#N)c1CC1c2ccccc2C(=O)N1Cc1ccc2[nH]nnc2c1 (stereo not drawn)
2. CNC(=O)Nc1ccc(CN2Cc3ccccc3C2=O)cc1
3. Cc1ccc(CN2C(=O)c3ccccc3C2Cc2c(Cl)cnn2C)cc1 (stereo not drawn)
4. COc1ccc(CN2C(=O)c3ccccc3C2Cc2c(Cl)ccn(C)c2=O)cn1 (stereo not drawn)
5. Cc1cccc2c1C(Cc1c(Cl)cnn1C)N(CC1CC3(CNC(=O)O3)C1)C2=O (stereo not drawn)
6. COc1ccc(CN2C(=O)c3ccccc3C2Cc2ncccc2Br)cc1 (stereo not drawn)
7. CC1c2cccc(-c3cccnc3)c2C(=O)N1Cc1ccc2[nH]c(=O)oc2c1 (stereo not drawn)

*A*
1: A (A>3); 2: B (3≥B>2); 3: C (2≥C); 4: A (A>3); 5: B (3≥B>2); 6: B (3≥B>2); 7: B (3≥B>2)

Reported Enzymatic Emax ( Cc1conc1CC1c2ccccc2C(=O)N1Cc1ccc2[nH]c(=O)oc2c1 (stereo not drawn) ) = A (A>3)

---

Tested on: endogenous NAMPT in U2OS cells
run-description: Cellular NAD+ modulation assay (NAD/NADH-Glo, U2OS cells)
Assay type: cell-based
run-conditions: Homo sapiens, 24 hours incubation, cellular NAD+
parameter: EC50

Cc1ccnc(C#N)c1CC1c2ccc(F)cc2C(=O)N1CC1CC2(CNC(=O)O2)C1 (stereo not drawn) | < 0.5 µM

Need EC50 for each of these molecules.
1. Cn1ncc(Cl)c1CC1c2cc(C3COC3)ccc2C(=O)N1Cc1ccc2[nH]nnc2c1 (stereo not drawn)
2. Cn1ncc(Cl)c1CC1c2ccccc2C(=O)N1C[C@@H]1CC1c1c[nH]nn1 (stereo in doubt)
3. COc1ccc(CN2C(=O)c3ccccc3C2Cc2c(Cl)cnn2C)cc1Cl (stereo not drawn)
4. Cc1ccnc(C#N)c1CC1c2ccccc2C(=O)N1C/C=C/c1c[nH]nn1 (stereo not drawn)

*A*
< 0.5 µM
< 0.5 µM
0.5 to 5 µM
< 0.5 µM

Need EC50 for each of these molecules.
1. N#Cc1ccnc(C#N)c1CC1c2ccccc2C(=O)N1Cc1ccc2[nH]nnc2c1 (stereo not drawn)
2. Cc1nn(C)c(C#N)c1CC1c2ccccc2C(=O)N1Cc1ccc2[nH]nnc2c1 (stereo not drawn)
3. Cn1ncc(Cl)c1CC1c2ccccc2C(C)(C)N1CC1CC2(CNC(=O)O2)C1 (stereo not drawn)
4. Cn1ncc(Cl)c1CC1c2cc(CN3CCCC3)ccc2C(=O)N1CC1CC2(CNC(=O)O2)C1 (stereo not drawn)
5. COc1ccc2c(c1)C(=O)N(Cc1ccc3[nH]nnc3c1)C2Cc1c(Cl)cnn1C (stereo not drawn)
6. O=C1c2ccccc2C(Cc2ncccc2Br)N1Cc1cc(F)c2[nH]nnc2c1 (stereo not drawn)

*A*
1. < 0.5 µM
2. < 0.5 µM
3. < 0.5 µM
4. 5 to 50 µM
5. < 0.5 µM
6. 5 to 50 µM

Need EC50 for each of these molecules.
1. O=C1c2ccccc2C(Cc2ncccc2Br)N1CC#Cc1cn[nH]n1 (stereo not drawn)
2. COCc1ccc2c(c1)C(Cc1c(Cl)cnn1C)N(Cc1ccc3[nH]nnc3c1)C2=O (stereo not drawn)
3. Cn1ncc(Cl)c1CC1c2ccccc2C(=O)N1Cc1n[nH]c(=O)o1 (stereo not drawn)
4. O=C1NCC2(CC(CN3C(=O)c4ccccc4C3Cc3c(Cl)nc4sccn34)C2)O1 (stereo not drawn)

*A*
< 0.5 µM
< 0.5 µM
0.5 to 5 µM
< 0.5 µM

Need EC50 for each of these molecules.
1. Cn1ncc(Cl)c1CC1c2cc(Cl)ccc2C(=O)N1CC1CC2(CNC(=O)O2)C1 (stereo not drawn)
2. Cc1ccnc(Br)c1CC1c2ccccc2C(=O)N1C/C=C/c1c[nH]nn1 (stereo not drawn)

*A*
< 0.5 µM
< 0.5 µM

Need EC50 for each of these molecules.
1. COc1ccc(CN2C(=O)c3ccccc3C2Cc2c(Cl)ccc(=O)n2C)cc1 (stereo not drawn)
2. Cn1nnc(Cl)c1CC1c2ccccc2C(=O)N1Cc1ccc2[nH]nnc2c1 (stereo not drawn)
3. COc1ccc(CN2C(=O)c3ccc(C4CC4)cc3C2Cc2c(C)ncnc2C#N)cc1 (stereo not drawn)
4. COc1ccc(CN2C(=O)c3ccccc3C2Cc2c(C)ccnc2C#N)cc1 (stereo not drawn)

*A*
["< 0.5 µM", "< 0.5 µM", "< 0.5 µM", "< 0.5 µM"]

Need EC50 for each of these molecules.
1. Cn1ncc(Cl)c1CC1c2cc(Cl)ccc2C(=O)N1Cc1ccc2[nH]nnc2c1 (stereo not drawn)
2. CCn1ncc(Cl)c1CC1c2ccccc2C(=O)N1CC1CC2(CNC(=O)O2)C1 (stereo not drawn)
3. COc1ccc(CN2C(=O)c3ccccc3C2Cc2c(Cl)cnn2C)cc1F (stereo not drawn)
4. Cn1ncc(Cl)c1CC1c2cc(CN3CCOCC3)ccc2C(=O)N1Cc1ccc2[nH]nnc2c1 (stereo not drawn)
5. Cn1ncc(Cl)c1CC1c2cc(CN3CC4(COC4)C3)ccc2C(=O)N1CC1CC2(CNC(=O)O2)C1 (stereo not drawn)
6. COc1ccc(CN2C(=O)c3ccccc3C2Cc2c(C)ncnc2C#N)cc1 (stereo not drawn)
7. O=C1c2ccccc2C(Cc2ncccc2Br)N1C/C=C/c1c[nH]nn1 (stereo not drawn)

*A*
< 0.5 µM
< 0.5 µM
< 0.5 µM
< 0.5 µM
0.5 to 5 µM
< 0.5 µM
< 0.5 µM

Need EC50 for each of these molecules.
1. COc1ccc(CN2C(=O)c3c(F)cc(Cl)cc3C2Cc2c(C)ccnc2C#N)cn1 (stereo not drawn)
2. O=C1c2ccccc2C(Cc2nn(C3CC4(COC4)C3)cc2Cl)N1Cc1ccc2[nH]nnc2c1 (stereo not drawn)
3. Cc1c(CC2c3ccccc3C(=O)N2Cc2ccc3[nH]nnc3c2)c(C#N)nn1C (stereo not drawn)
4. Cc1ccn(C)c(=O)c1CC1c2ccccc2C(=O)N1CC1CC2(CNC(=O)O2)C1 (stereo not drawn)

*A*
1: 0.5 to 5 µM; 2: 5 to 50 µM; 3: < 0.5 µM; 4: 0.5 to 5 µM

Reported EC50 ( [2H]C1([2H])NC(=O)OC12CC(CN1C(=O)c3ccccc3C1Cc1c(Cl)cnn1C)C2 (stereo not drawn) ) = < 0.5 µM
